Listing of entries alongside the reported IC50.
Biological target: FGFR3 (Homo sapiens (Human), UniProt P22607)
Sequence (P22607 23-806): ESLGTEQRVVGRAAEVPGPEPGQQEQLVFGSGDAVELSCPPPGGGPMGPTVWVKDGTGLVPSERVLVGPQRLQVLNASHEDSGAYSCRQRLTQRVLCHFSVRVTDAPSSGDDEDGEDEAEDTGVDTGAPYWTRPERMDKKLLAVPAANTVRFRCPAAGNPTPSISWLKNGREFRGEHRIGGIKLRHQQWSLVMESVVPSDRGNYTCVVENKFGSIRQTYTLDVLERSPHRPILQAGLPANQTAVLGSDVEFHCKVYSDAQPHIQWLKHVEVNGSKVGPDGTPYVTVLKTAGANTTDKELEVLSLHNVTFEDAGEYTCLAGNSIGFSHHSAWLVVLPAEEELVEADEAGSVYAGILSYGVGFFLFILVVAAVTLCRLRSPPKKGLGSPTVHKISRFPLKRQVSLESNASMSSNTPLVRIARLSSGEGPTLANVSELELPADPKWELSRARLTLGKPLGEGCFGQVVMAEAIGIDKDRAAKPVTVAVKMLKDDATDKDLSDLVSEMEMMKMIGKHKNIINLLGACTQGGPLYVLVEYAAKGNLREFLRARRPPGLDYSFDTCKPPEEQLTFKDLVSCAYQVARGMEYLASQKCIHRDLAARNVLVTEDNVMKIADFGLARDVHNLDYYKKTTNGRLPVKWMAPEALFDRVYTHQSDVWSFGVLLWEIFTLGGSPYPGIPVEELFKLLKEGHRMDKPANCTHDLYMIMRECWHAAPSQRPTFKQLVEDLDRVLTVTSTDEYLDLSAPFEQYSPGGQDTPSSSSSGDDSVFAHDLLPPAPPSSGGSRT
Assay: In vitro biochemical kinase assay (Caliper Assay), FGFR3
Conditions: enzyme 8 nM, ATP 4.7 μM, 30 minutes; read-out: Enzymatic activity IC50(nM) FGFR3
Measure name: IC50

INSERT INTO measurements (molecule, measure_name, recorded_result) VALUES
  ('CCn1c(=O)c(-c2c(Cl)c(OC)cc(OC)c2Cl)cc2cnc(-c3cnn(CCN4CCOCC4)c3)cc21', 'IC50', '≤ 5 nM'),
  ('COc1cc(OC)c(Cl)c(-c2cc3cnc(-c4cnn(C)c4)cc3n(C)c2=O)c1Cl', 'IC50', '50 to 500 nM'),
  ('COc1cc(OC)c(Cl)c(-c2cc3cnc(-c4cnn(CCN5CCOCC5)c4)cc3n(C)c2=O)c1Cl', 'IC50', '50 to 500 nM'),
  ('COc1cc(OC)c(Cl)c(-c2cc3cnc(-c4cnn(C)c4)cc3n(C3CCOC3)c2=O)c1Cl (stereo in doubt)', 'IC50', '≤ 5 nM');

* * *

Molecular target: FGFR2 (Homo sapiens (Human))
Assay: In vitro biochemical kinase assay (Caliper Assay), FGFR2
Conditions: enzyme 2.5 nM, ATP 1 μM, 40 minutes; read-out: Enzymatic activity IC50(nM) FGFR2
Measure name: IC50

INSERT INTO measurements (smiles_record, assayed_system, measure_name, recorded_result) VALUES
  ('COc1cc(OC)c(F)c(-c2cc3cnc(-c4cnn(CCN5CCOCC5)c4)cc3n(C(C)C)c2=O)c1F', 'FGFR2 (Homo sapiens (Human))', 'IC50', '≤ 5 nM'),
  ('CCn1c(=O)c(-c2c(Cl)c(OC)cc(OC)c2Cl)cc2cnc(-c3cnn(C)c3)cc21', 'FGFR2 (Homo sapiens (Human))', 'IC50', '≤ 5 nM'),
  ('CCn1c(=O)c(-c2c(Cl)c(OC)cc(OC)c2Cl)cc2cnc(-c3cnn(CCN4CCOCC4)c3)cc21', 'FGFR2 (Homo sapiens (Human))', 'IC50', '≤ 5 nM'),
  ('CCn1c(=O)c(-c2c(F)c(OC)cc(OC)c2F)cc2cnc(-c3cnn(C)c3)cc21', 'FGFR2 (Homo sapiens (Human))', 'IC50', '≤ 5 nM');

* * *

Biological target: FGFR2 (Homo sapiens (Human), UniProt P21802)
Sequence (P21802 22-821): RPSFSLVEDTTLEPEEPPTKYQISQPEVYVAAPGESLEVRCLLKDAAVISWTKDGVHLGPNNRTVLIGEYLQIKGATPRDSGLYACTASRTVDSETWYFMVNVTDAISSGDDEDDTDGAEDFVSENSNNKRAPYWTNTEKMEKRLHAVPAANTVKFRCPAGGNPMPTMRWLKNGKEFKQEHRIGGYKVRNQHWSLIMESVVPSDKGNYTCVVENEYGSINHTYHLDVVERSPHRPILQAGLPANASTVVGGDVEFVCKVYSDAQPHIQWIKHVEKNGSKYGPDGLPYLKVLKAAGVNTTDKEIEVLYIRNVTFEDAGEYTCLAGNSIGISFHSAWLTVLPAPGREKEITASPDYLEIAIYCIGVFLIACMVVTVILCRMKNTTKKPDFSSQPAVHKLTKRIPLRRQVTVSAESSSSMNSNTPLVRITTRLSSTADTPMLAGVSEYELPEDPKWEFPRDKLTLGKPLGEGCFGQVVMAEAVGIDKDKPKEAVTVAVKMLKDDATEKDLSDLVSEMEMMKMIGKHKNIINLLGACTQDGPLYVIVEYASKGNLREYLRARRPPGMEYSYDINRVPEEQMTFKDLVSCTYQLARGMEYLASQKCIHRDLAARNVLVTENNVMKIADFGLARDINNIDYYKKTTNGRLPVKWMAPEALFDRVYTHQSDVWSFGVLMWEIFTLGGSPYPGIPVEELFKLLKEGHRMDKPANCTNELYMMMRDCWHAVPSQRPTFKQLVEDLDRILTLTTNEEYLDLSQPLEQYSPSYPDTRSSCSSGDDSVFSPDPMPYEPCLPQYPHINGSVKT
Test: In vitro biochemical kinase assay (Caliper Assay), FGFR2
Conditions: enzyme 2.5 nM, ATP 1 μM, 40 minutes; read-out: Enzymatic activity IC50(nM) FGFR2
Measure name: IC50

INSERT INTO measurements (compound, assayed_system, measure_name, recorded_result) VALUES
  ('COc1cc(OC)c(Cl)c(-c2cc3cnc(-c4cnn(C)c4)cc3n(CCN3CCOCC3)c2=O)c1Cl', 'FGFR2 (Homo sapiens (Human), UniProt P21802)', 'IC50', '10 to 50 nM'),
  ('COc1cc(OC)c(Cl)c(-c2cc3cnc(-c4ccc(C5(C#N)CCC5)nc4)cc3n(C3CCOC3)c2=O)c1Cl (stereo not shown)', 'FGFR2 (Homo sapiens (Human), UniProt P21802)', 'IC50', '10 to 50 nM'),
  ('COc1cc(OC)c(F)c(-c2cc3cnc(-c4ccc(C(C)(C)C#N)nc4)cc3n(C3CCOC3)c2=O)c1F (stereo not shown)', 'FGFR2 (Homo sapiens (Human), UniProt P21802)', 'IC50', '≤ 5 nM'),
  ('CCn1c(=O)c(-c2cc(OC)cc(OC)c2Cl)cc2cnc(-c3cnn(C)c3)cc21', 'FGFR2 (Homo sapiens (Human), UniProt P21802)', 'IC50', '5 to 10 nM');
